test system: COLO 205 colon; test: NCI-60 one-dose screen, 48 h; settings: 10 µM unless noted
This is part of a sample that, as a whole, favours compounds with a hit. Of some 83,000 tested, about 20% had one in any assay. Calls of active or inactive are those of the source. Rule for the calls: active = growth percent below 10; inactive = the rest.
Pick from true (1) = active, false (0) = inactive when you respond.

compound="CC(C)(C)c1ccc(C2CC(=O)C3=C(C2)Nc2ccccc2N(C(=O)c2ccccc2Cl)C3c2ccc(F)cc2)cc1 (centres undefined)" assayed_system="COLO 205 colon" label_value="true (1)"
compound=Nc1ccc(-c2nc3cc(Oc4ccc(Oc5ccc6[nH]c(-c7ccc(N)cc7)nc6c5)cc4)ccc3[nH]2)cc1 assayed_system="COLO 205 colon" label_value="false (0)"
compound=COc1cccc(-c2nn(C)c3sc(C(=O)NCCN4CCN(c5ccccc5F)CC4)cc23)c1 assayed_system="COLO 205 colon" label_value="true (1)"
compound=CN(O)c1nc(N(C)O)nc(N2CCOCC2)n1 assayed_system="COLO 205 colon" label_value="true (1)"

stdin: Recorded test outcome, item O=C(/C=C/c1cccc(Cl)c1)OCc1ccc2cc1OCC#C/C=C\C#CCO2
stdout: false (0)

stdin: Recorded test outcome, item CCN1C(=O)N(CC)C2C1NN=c1s/c(=C3\C(=O)N(C(C)C)c4ccccc43)c(=O)n12 (centres undefined)
stdout: true (1)

stdin: Recorded test outcome, item O=C(COc1cc(O)c2c(=O)cc(-c3ccccc3)oc2c1)Nc1ccccc1C(F)(F)F
stdout: false (0)

stdin: Recorded test outcome, item O=C1/C(=C/c2ccc(O)cc2)COc2ccc(O)cc21
stdout: false (0)

stdin: Recorded test outcome, item CCCCCCC(O)(c1ccc(F)cc1)C(CN1CCOCC1)c1ccccc1 (centres undefined)
stdout: true (1)

Reference source for all entries: PubChem BioAssay (NCI)
